Sourced from patent US8916183B2

test system: Beet Armyworm (BAW) (Spodoptera exigua); assay: Bioassay on beet armyworm (BAW), 128-well diet tray assay; assay type: in vivo; conditions: Spodoptera exigua; beet armyworm, 50 μg/cm^2; read-out: % Mortality BAW 50 μg/cm^2
In this section, each of the molecules is paired with its reported mortality at 50 µg/cm2.
measured_endpoint: mortality at 50 µg/cm2

molecule	assay_value
Cc1cccc(C)c1/N=C(/N/N=C/c1ccc(-c2ncn(-c3ccc(OC(F)(F)F)cc3)n2)cc1)SCc1ccc(C(=O)O)cc1 [Compound 6C]	50 to 100%
CC(C)Cc1ccccc1N1CCS/C1=N\N=C\c1ccc(-c2ncn(-c3ccc(OC(F)(F)F)cc3)n2)cc1 [Compound 150C]	50 to 100%
C/C(=N\N=C1/SCC(=O)N1c1ccccc1CC(C)C)c1ccc(-c2ncn(-c3ccc(OC(F)(F)F)cc3)n2)cc1 [Compound 122C]	50 to 100%
CC(C)c1ccccc1N1CCCCS/C1=N\N=C\c1ccc(-c2ncn(-c3ccc(OC(F)(F)F)cc3)n2)cc1 [Compound 212C]	50 to 100%
COc1ccc(N2/C(=N/N=C/c3ccc(-c4ncn(-c5ccc(OC(F)(F)F)cc5)n4)cc3)SCCC2C)c(C)c1 (stereo not shown) [Compound 219C]	50 to 100%
CCc1cccc(C)c1N1C(=O)CCS/C1=N\N=C\c1ccc(-c2ncn(-c3ccc(OC(F)(F)F)cc3)n2)cc1 [Compound 225C]	50 to 100%
COc1ccc(N2CCCS/C2=N\N=C\c2ccc(-c3ncn(-c4ccc(OC(F)(F)F)cc4)n3)cc2)cc1 [Compound 202C]	50 to 100%

* * *

system: Beet Armyworm (BAW) (Spodoptera exigua); assay: Bioassay on beet armyworm (BAW), 128-well diet tray assay; assay type: in vivo; settings: Spodoptera exigua; beet armyworm, 50 μg/cm^2; read-out: % Mortality BAW 50 μg/cm^2
Reported mortality at 50 µg/cm2 is given for each of the following compounds.
measured_endpoint: mortality at 50 µg/cm2

compound	measured_endpoint	assay_value
Cc1cccc(C)c1/N=C(/N/N=C/c1ccc(-c2ncn(-c3ccc(OC(F)(F)F)cc3)n2)cc1)SCc1ccc(F)cc1F	mortality at 50 µg/cm2	0%
CC1(O)CS/C(=N\c2c(Cl)cccc2C(F)(F)F)N1/N=C/c1ccc(-c2ncn(-c3ccc(OC(F)(F)F)cc3)n2)cc1 (stereo not drawn) [Compound 241C]	mortality at 50 µg/cm2	50 to 100%
Cc1cccc(C)c1-n1c(-c2ccc(OC(F)(F)F)cc2)cs/c1=N\N=Cc1ccc(-c2ncn(-c3ccc(OC(F)(F)F)cc3)n2)cc1 [Compound 78C]	mortality at 50 µg/cm2	50 to 100%

* * *

System: Beet Armyworm (BAW) (Spodoptera exigua)
Assay: Bioassay on beet armyworm (BAW), 128-well diet tray assay
Format: in vivo
Conditions: Spodoptera exigua; beet armyworm, 50 μg/cm^2; read-out: % Mortality BAW 50 μg/cm^2
Experimental: Certain molecules disclosed in this document were tested against BAW and CEW using procedures described in the following examples. In the reporting of the results, the “BAW & CEW Rating Table” was used (See Table Section). Bioassays on BAW (Spodoptera exigua) Bioassays on BAW were conducted using a 128-well diet tray assay. […] Percent mortality was recorded for the larvae in each well; activity in the eight wells was then averaged. […]
mortality at 50 µg/cm2 overview

compound	mortality at 50 µg/cm2
Cc1cccc(C)c1N1CCCS/C1=N\N=C\c1ccc(-c2ncn(-c3ccc(OC(F)(F)F)cc3)n2)cc1 [Compound 182C]	50 to 100%
O=C1CCS/C(=N\N=C\c2ccc(-c3ncn(-c4ccc(OC(F)(F)F)cc4)n3)cc2)N1c1c(Cl)cccc1C(F)(F)F [Compound 228C]	50 to 100%
COc1cc(C)c(N2/C(=N/N=C/c3ccc(-c4ncn(-c5ccc(OC(F)(F)F)cc5)n4)cc3)SCC2(C)O)c(C)c1 (stereo not drawn) [Compound 255C]	50 to 100%

* * *

Property: mortality at 50 µg/cm2; scope: individual molecules
tested on: Beet Armyworm (BAW) (Spodoptera exigua); test: Bioassay on beet armyworm (BAW), 128-well diet tray assay; format: in vivo; conditions: Spodoptera exigua; beet armyworm, 50 μg/cm^2; read-out: % Mortality BAW 50 μg/cm^2

molecule	mortality at 50 µg/cm2
Cc1cccc(C)c1/N=C(/N/N=C/c1ccc(-c2ncn(-c3ccc(OC(F)(F)F)cc3)n2)cc1)SCOC(=O)OC(C)C [Compound 24C]	50 to 100%
Cc1cccc(C)c1/N=C(/N/N=C/c1ccc(-c2ncn(-c3ccc(OC(F)(F)F)cc3)n2)cc1)SCOC(=O)C(C)C [Compound 25C]	50 to 100%
Cc1cccc(C)c1/N=C(/N/N=C/c1ccc(-c2ncn(-c3ccc(OC(F)(F)F)cc3)n2)cc1)SCc1ccc(S(C)(=O)=O)cc1 [Compound 17C]	50 to 100%

* * *

test system: Beet Armyworm (BAW) (Spodoptera exigua); experiment: Bioassay on beet armyworm (BAW), 128-well diet tray assay; type: in vivo; conditions: Spodoptera exigua; beet armyworm, 50 μg/cm^2; read-out: % Mortality BAW 50 μg/cm^2
measured_endpoint: mortality at 50 µg/cm2

compound	measured_endpoint	assay_value
Cc1cccc(C)c1/N=C(/N/N=C/c1ccc(-c2ncn(-c3ccc(OC(F)(F)F)cc3)n2)cc1)SCc1ocnc1-c1ccccc1 [Compound 15C]	mortality at 50 µg/cm2	50 to 100%
CCC(C)c1ccccc1N1C(=O)CS/C1=N\N=C\c1ccc(-c2ncn(-c3ccc(OC(F)(F)F)cc3)n2)cc1 (stereo not drawn) [Compound 108C]	mortality at 50 µg/cm2	50 to 100%
CC1S/C(=N\N=C\c2ccc(-c3ncn(-c4ccc(OC(F)(F)F)cc4)n3)cc2)N(c2c(Cl)cccc2Cl)C1=O (stereo not drawn) [Compound 129C]	mortality at 50 µg/cm2	50 to 100%

* * *

tested on: Beet Armyworm (BAW) (Spodoptera exigua); experiment: Bioassay on beet armyworm (BAW), 128-well diet tray assay; format: in vivo; details: Spodoptera exigua; beet armyworm, 50 μg/cm^2; read-out: % Mortality BAW 50 μg/cm^2
measured_endpoint: mortality at 50 µg/cm2

compound	experimental_target	measured_endpoint	assay_value
Cc1cccc(C)c1N1CCCCS/C1=N\N=C\c1ccc(-c2ncn(-c3ccc(OC(F)(F)F)cc3)n2)cc1 [Compound 211C]	Beet Armyworm (BAW) (Spodoptera exigua)	mortality at 50 µg/cm2	50 to 100%
Cc1cccc(C)c1/N=C1\SCC(=O)N1/N=C/c1ccc(-c2ncn(-c3ccc(OC(F)(F)F)cc3)n2)cc1 [Compound 81C]	Beet Armyworm (BAW) (Spodoptera exigua)	mortality at 50 µg/cm2	50 to 100%
CCOc1cccc(OCC)c1N1C(=O)CS/C1=N\N=C\c1ccc(-c2ncn(-c3ccc(OC(F)(F)F)cc3)n2)cc1 [Compound 98C]	Beet Armyworm (BAW) (Spodoptera exigua)	mortality at 50 µg/cm2	50 to 100%
COc1cc(C)c(/N=C(/N/N=C/c2ccc(-c3ncn(-c4ccc(OC(F)(F)F)cc4)n3)cc2)SCOC(=O)C2CCCC2)c(C)c1 [Compound 43C]	Beet Armyworm (BAW) (Spodoptera exigua)	mortality at 50 µg/cm2	50 to 100%
COc1cc(C)c(N2C(=O)CS/C2=N\N=C\c2ccc(-c3ncn(-c4ccc(OC(F)(F)F)cc4)n3)cc2)c(C)n1 [Compound 101C]	Beet Armyworm (BAW) (Spodoptera exigua)	mortality at 50 µg/cm2	50 to 100%
CC(C)c1cc(F)c(F)cc1N1/C(=N/N=C/c2ccc(-c3ncn(-c4ccc(OC(F)(F)F)cc4)n3)cc2)SCC1(C)O (stereo not drawn) [Compound 259C]	Beet Armyworm (BAW) (Spodoptera exigua)	mortality at 50 µg/cm2	50 to 100%

* * *

measured_endpoint: melting point

compound	assay_value
Cc1cccc(NC(=S)N/N=C/c2ccc(-c3ncn(-c4ccc(OC(F)(F)F)cc4)n3)cc2)c1C(C)C [Compound I-43]	219 to 222 °C
CC(C)c1cc(F)c(F)cc1NC(=S)N/N=C/c1ccc(-c2ncn(-c3ccc(OC(F)(F)F)cc3)n2)cc1 [Compound I-55]	217 to 221 °C
CC(C)c1cc(F)ccc1NC(=S)NN [Compound I-50]	163 to 167 °C
CC(C)c1cc(F)c(F)cc1NC(=S)NN [Compound I-54]	169 to 170 °C
Cc1ccc(C(C)C)c(NC(=S)NN)c1 [Compound I-46]	167 to 169 °C
FC(F)(F)Oc1ccc(-n2cnc(-c3ccc(/C=N/NC(=S)Nc4ccccc4C4CCCC4)cc3)n2)cc1 [Compound I-35]	213 to 216 °C
